- system under test: C-CBL (46-435) (Homo sapiens)
- Construct: N-terminal biotinylated WT CBL-B (36-427) and C-CBL (46-435) were captured on a streptavidin (SA) coated sensor chip
- Sequence (P22681 46-435): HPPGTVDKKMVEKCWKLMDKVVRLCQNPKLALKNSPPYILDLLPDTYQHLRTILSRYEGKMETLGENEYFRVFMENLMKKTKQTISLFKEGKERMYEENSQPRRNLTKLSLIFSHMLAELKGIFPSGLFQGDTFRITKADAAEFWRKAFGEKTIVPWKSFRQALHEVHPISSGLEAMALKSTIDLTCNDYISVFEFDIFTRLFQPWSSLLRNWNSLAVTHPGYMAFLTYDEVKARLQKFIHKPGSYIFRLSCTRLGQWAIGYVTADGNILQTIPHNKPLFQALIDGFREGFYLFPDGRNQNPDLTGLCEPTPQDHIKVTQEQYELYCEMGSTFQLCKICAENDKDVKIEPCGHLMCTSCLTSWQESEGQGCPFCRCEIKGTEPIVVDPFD
- assay info: Surface Plasmon Resonance (SPR) assay, binding affinity and kinetics, C-CBL
- test settings: SPR at 10° C., biotinylated C-CBL (46-435) on streptavidin chip; geometric mean; read-out: C-CBL SPR Kd (nM) GMean
// values below are reported Kd

compound	Kd / nM
C[C@H](N[C@H]1CCOC1)c1nc(C(F)(F)F)cc2c(-c3cccc([C@H](c4nncn4C)C4CCC4)c3)n[nH]c12 (single isomer, unassigned) [Example C2]	38.8
Cn1cnnc1[C@@H](c1cccc(-c2n[nH]c3c(CN4CC[C@H](F)C4)nc(C(F)(F)F)cc23)c1)C1CCC1 [Example C110]	300
Cn1cnnc1CC1(c2cccc(-c3n[nH]c4c(CN5CCCC5)nc(C(F)(F)F)cc34)c2)COC1 [Example C62]	111
C[C@@H](N[C@@H]1CCC[C@@H]1O)c1nc(C(F)(F)F)cc2c(-c3cccc([C@H](c4nncn4C)C4CCC4)c3)n[nH]c12 (single isomer, unassigned) [Example D16]	43.1
C[C@H](c1nc(C(F)(F)F)cc2c(-c3cccc(C4(Cc5nncn5C)COC4)c3)n[nH]c12)N1CCC1 (single isomer, unassigned) [Example D42]	59.8
CCC(c1cccc(-c2n[nH]c3cnc(C(F)(F)F)cc23)c1)c1nncn1C (single isomer, unassigned) [Example A2]	251

* * *

- system under test: WT CBL-B (36-427) (Homo sapiens, UniProt Q13191)
- Construct: N-terminal biotinylated WT CBL-B (36-427) and C-CBL (46-435) were captured on a streptavidin (SA) coated sensor chip
- Sequence (Q13191 36-427): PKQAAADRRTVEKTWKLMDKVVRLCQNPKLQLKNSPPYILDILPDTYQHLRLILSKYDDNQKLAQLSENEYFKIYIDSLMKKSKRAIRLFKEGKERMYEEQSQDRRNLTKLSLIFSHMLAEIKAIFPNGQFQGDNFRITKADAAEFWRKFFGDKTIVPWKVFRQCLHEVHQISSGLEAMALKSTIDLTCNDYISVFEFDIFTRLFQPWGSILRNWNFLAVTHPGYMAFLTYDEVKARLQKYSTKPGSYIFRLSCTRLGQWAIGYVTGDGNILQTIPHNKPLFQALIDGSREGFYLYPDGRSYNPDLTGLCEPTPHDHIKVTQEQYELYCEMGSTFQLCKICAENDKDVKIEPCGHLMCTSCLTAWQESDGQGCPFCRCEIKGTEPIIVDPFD
- assay info: Surface Plasmon Resonance (SPR) assay, binding affinity and kinetics, CBL-B
- test settings: SPR at 10° C., biotinylated WT CBL-B (36-427) on streptavidin chip; geometric mean; read-out: CBL-B SPR Kd (nM) GMean
Response field label takes Satisfied when Kd is strictly below 10 nM and Not satisfied in all other cases.

                                   molecule   answer_label
0  CC(NC1CC2(COC2)C1)c1nc(C(F)(F)F)cc2c(-c3cccc([C@H](c4nncn4C)C4CCC4)c3)n[nH]c12 (single isomer, unassigned) [Example C97]      Satisfied
1  CN1CC[C@H](Oc2nc(C(F)(F)F)cc3c(-c4cccc([C@H](c5nncn5C)C5CCC5)c4)n[nH]c23)C1      Satisfied
2  Cn1cnnc1[C@@H](c1cccc(-c2n[nH]c3c(CN[C@H]4CCC[C@@H]4O)nc(C(F)(F)F)cc23)c1)C1CCC1      Satisfied
3  CN(C)Cc1nc(C(F)(F)F)cc2c(-c3cccc(C4(Cc5nncn5C)COC4)c3)n[nH]c12  Not satisfied
4  Cn1cnnc1CC1(c2cccc(-c3n[nH]c4c(CN5C[C@@H](F)[C@H](F)C5)nc(C(F)(F)F)cc34)c2)COC1      Satisfied
5  CC(=O)NCC(C)c1nc(C(F)(F)F)cc2c(-c3cccc([C@H](c4nncn4C)C4CCC4)c3)n[nH]c12 (single isomer, unassigned) [Example M4]  Not satisfied

* * *

- system under test: C-CBL (46-435) (Homo sapiens)
- Construct: N-terminal biotinylated WT CBL-B (36-427) and C-CBL (46-435) were captured on a streptavidin (SA) coated sensor chip
- assay info: Surface Plasmon Resonance (SPR) assay, binding affinity and kinetics, C-CBL
- test settings: SPR at 10° C., biotinylated C-CBL (46-435) on streptavidin chip; geometric mean; read-out: C-CBL SPR Kd (nM) GMean
Response field label takes rule met when Kd is strictly below 100 nM and rule not met in all other cases.

compound	answer label
CC(NC1CC(F)(F)C1)c1nc(C(F)(F)F)cc2c(-c3cccc(C4(Cc5nncn5C)COC4)c3)n[nH]c12 (single isomer, unassigned) [Example C93]	rule met
C[C@H](N[C@@H]1CCOC1)c1nc(C(F)(F)F)cc2c(-c3cccc([C@H](c4nncn4C)C4CCC4)c3)n[nH]c12 (single isomer, unassigned) [Example D2]	rule not met
C[C@@H]1CN(Cc2nc(C(F)(F)F)cc3c(-c4cccc(C5(Cc6nncn6C)COC5)c4)n[nH]c23)CCO1 [Example C72]	rule met
CC(NC1CCCC1)c1nc(C(F)(F)F)cc2c(-c3cccc([C@H](c4nncn4C)C4CCC4)c3)n[nH]c12 (stereo partly drawn) [Example C14]	rule met
Cn1cnnc1CC1(c2cccc(-c3n[nH]c4c(CN5CC(F)C5)nc(C(F)(F)F)cc34)c2)COC1 [Example C65]	rule not met
C[C@@H](N[C@H]1CCC(F)(F)C1)c1nc(C(F)(F)F)cc2c(-c3cccc(C4(Cc5nncn5C)COC4)c3)n[nH]c12 (single isomer, unassigned) [Example C13]	rule met
Cn1cnnc1CC1(c2cccc(-c3n[nH]c4c(CN5CC[C@@H](F)C5)nc(C(F)(F)F)cc34)c2)COC1 [Example C71]	rule not met
Cn1cnnc1[C@@H](c1cccc(-c2n[nH]c3c(CN4CCCC4)nc(C(F)(F)F)cc23)c1)C1CCC1 [Example D94]	rule not met
Cn1cnnc1CC1(c2cccc(-c3n[nH]c4cnc(OC(F)(F)F)cc34)c2)COC1 [Example B9]	rule not met
C[C@H](N[C@H]1C[C@@H](F)C1)c1nc(C(F)(F)F)cc2c(-c3cccc([C@H](c4nncn4C)C4CCC4)c3)n[nH]c12 (single isomer, unassigned) [Example C95]	rule met
C[C@H](c1nc(C(F)(F)F)cc2c(-c3cccc(C4(Cc5nncn5C)COC4)c3)n[nH]c12)N1CCO[C@@H](C)C1 (single isomer, unassigned) [Example D12]	rule met
Cn1cnnc1[C@@H](c1cccc(-c2n[nH]c3c(CN4C[C@@H](F)[C@@H](F)C4)nc(C(F)(F)F)cc23)c1)C1CCC1 [Example C107]	rule not met
